Give measured Kd for each item. Keep answers brief.
# targetUnderTest: T1, human PD-L1 (human, UniProt Q9NZQ7 19-238, limits assumed)
# T1 construct: also called hPD-L1
# T1 sequence (Q9NZQ7 19-238 limits assumed): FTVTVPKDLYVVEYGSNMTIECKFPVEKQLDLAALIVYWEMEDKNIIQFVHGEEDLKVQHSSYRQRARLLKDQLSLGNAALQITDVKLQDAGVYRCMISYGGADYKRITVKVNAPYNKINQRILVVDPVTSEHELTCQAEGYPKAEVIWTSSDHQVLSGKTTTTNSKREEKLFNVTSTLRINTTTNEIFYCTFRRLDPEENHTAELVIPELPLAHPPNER
# methodSummary: Octet-96 BLI; antigen not named, taken as human PD-L1
Form entry: value (pM) — number only.

Can you look up the measured Kd of ChVH2/ChVL2 (antibody, V domains shown, Humanized Clone C; constant regions (CH1-FC/CL) from the vector, expressed in 293F cells; also called humanized Clone C, Ch VH2 + Ch VL2) VH: QVQLVQSGAEVKKPGASVKVSCKASGFNIKDTYMHWVRQAPGQGLEWIGRIDPANGNTKYDPKFQGRATITTDTSTNTAYLELSSLRSEDTAVYYCARGLGRWFAYWGQGTTVTVSS VL: DIQMTQSPSSLSASVGDRVTITCKASQDVSNAVAWYQQKPGKAPKLLIYSASNRYTGVPSRFSGSGSGTDFTFTISSLQPEDIATYYCQQHDSTPLTFGQGTKLELK for me?
201

Likewise for ChVH2/ChVL3 (antibody, V domains shown, Humanized Clone C; constant regions (CH1-FC/CL) from the vector, expressed in 293F cells; also called humanized Clone C, Ch VH2 + Ch VL3) VH: QVQLVQSGAEVKKPGASVKVSCKASGFNIKDTYMHWVRQAPGQGLEWIGRIDPANGNTKYDPKFQGRATITTDTSTNTAYLELSSLRSEDTAVYYCARGLGRWFAYWGQGTTVTVSS VL: DIQMTQSPSSLSASVGDRVTITCQASQDVSNAVAWYQQKPGKAPKLLIYSASNLYTGVPSRFSGSGSGTDFTFTISSLQPEDIATYYCQQHDSTPLTFGQGTKLELK ?
329

Likewise for BhVH2/BhVL7 (antibody, V domains shown, Humanized Clone B; constant regions (CH1-FC/CL) from the vector, expressed in 293F cells; also called humanized Clone B, Bh VH2 + Bh VL7) VH: QGQLVQSGAEVKKPGASVKVSCKTSGFTFSSSYISWVRQAPGQGLEWMGWIYAGTGGTSYNQKFTGRVTMTVDTSTSTAYMELRSLRSDDTAVYYCARHEGKYWYFDVWGQGTTVTVSS VL: EIVMTQSPATLSVSPGERATLSCSASSSVSYVHWYQQKPGQAPRLLIYDTSNLASGIPARFSGSGSGTEFTLTISSLQSEDFAVYYCHQRSSYPWTFGGGTKVEIK ?
942

Likewise for BhVH5/BhVL7 (antibody, V domains shown, Humanized Clone B; constant regions (CH1-FC/CL) from the vector, expressed in 293F cells; also called humanized Clone B, Bh VH5 + Bh VL7) VH: QGQLVQSGAEVKKPGSSVKVSCKTSGFTFSSSYISWVRQAPGQGLEWMGWIYAGTGGTSYNQKFTGRVTITVDTSTSTAYMELSSLRSEDTAVYYCARHEGKYWYFDVWGQGTTVTVSS VL: EIVMTQSPATLSVSPGERATLSCSASSSVSYVHWYQQKPGQAPRLLIYDTSNLASGIPARFSGSGSGTEFTLTISSLQSEDFAVYYCHQRSSYPWTFGGGTKVEIK ?
400

Likewise for DhVH2/DhVL2 (antibody, V domains shown, Humanized Clone D; constant regions from the vector, 293F cells; also called humanized Clone D, Dh VH2 + Dh VL2) VH: QVQLVQSGAEVKKPGASVKVSCKASGYSFTGYTMNWVKQAHGQGLEWMGLIIPYNGGISYNQKFKDRVTMTVDTSISTAYMELSRLRSDDTAVYYCASLITTAPRDSMDYWGQGTLVTVSS VL: DIQMTQSPSSLSASVGDRVTITCRASQDISNYLNWYQQKPGKAPKLLIYYTSKLHSGVPSRFSGSGSGTDFTLTISSLQPEDIATYYCQQGDALPWTFGGGTKVEIK ?
11800

Likewise for ChVH3/ChVL1 (antibody, V domains shown, Humanized Clone C; constant regions (CH1-FC/CL) from the vector, expressed in 293F cells; also called humanized Clone C, Ch VH3 + Ch VL1) VH: QVQLVQSGAEVKKPGASVKVSCKASGFNIKDTYMHWVRQAPGQGLEWIGRIDPANGNTKYDPKFQGRVTITTDTSANTAYMELSSLRSEDTAVYYCARGLGRWFAYWGQGTTVTVSS VL: DIQMTQSPSSLSASVGDRVTITCKASQDVSNAVAWYQQKPGKAPKLLIYSASNRYTGVPDRFSGSGSGTDFTFTISSLQPEDIATYYCQQHDSTPLTFGQGTKLELK ?
160
